assayed target: UniProtKB P21554
assay explanation: Human CB1 receptor binding, [3H] CP-55,940 displacement on HEK cell membranes
Parameters: expressed in transfected cells; host or cells: HEK cells, doxycycline-induced; membrane preparation
condition context: CB1 Ki
Reported values of Ki for individual entries
Express the result in nM but write the number alone.

Reference set (3 entries):
- compound: "Cn1cc(CNC(=O)[C@@H](NC(=O)c2nn(Cc3ccc(F)cc3)c3ccccc23)C(C)(C)C)cn1 [Example 423]"
  Ki / nM: 5.19
- compound: "CC(C)(C)[C@H](NC(=O)c1nn(Cc2ccc(F)cc2)c2ccccc12)C(=O)N1CCCC(F)(F)C1 [Example 333]"
  Ki / nM: 1.49
- compound: "Cc1cc2c(C(=O)N[C@H](C(=O)NC[C@H](O)CO)C(C)(C)C)nn(Cc3ccc(F)cc3)c2cc1F [Example 510]"
  Ki / nM: 6.87

Could you now look at the following compound, please?
**Query** Field request: Ki | item: CC(C)(C)C(NC(=O)c1nn(Cc2ccc(F)cc2)c2ccc(F)cc12)C(=O)NC1CC1 (stereo not shown) [Example 171]
**Result** 0.42

###

assayed target: human CB1 receptor (Homo sapiens, UniProt P21554)
Sequence (P21554 whole entry): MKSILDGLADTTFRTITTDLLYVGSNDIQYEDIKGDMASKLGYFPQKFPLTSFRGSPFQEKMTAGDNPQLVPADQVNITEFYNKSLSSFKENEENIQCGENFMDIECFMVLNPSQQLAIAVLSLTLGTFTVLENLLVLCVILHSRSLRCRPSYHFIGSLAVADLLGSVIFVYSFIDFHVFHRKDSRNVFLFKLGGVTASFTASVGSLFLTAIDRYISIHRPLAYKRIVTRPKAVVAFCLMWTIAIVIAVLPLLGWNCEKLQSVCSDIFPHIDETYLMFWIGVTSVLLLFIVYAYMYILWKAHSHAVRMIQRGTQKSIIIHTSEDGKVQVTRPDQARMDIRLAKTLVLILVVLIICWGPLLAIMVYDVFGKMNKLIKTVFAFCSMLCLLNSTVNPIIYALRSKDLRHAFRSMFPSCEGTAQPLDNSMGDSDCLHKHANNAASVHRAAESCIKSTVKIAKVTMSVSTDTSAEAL
assay explanation: [35S] GTPγS binding on membranes of CHO cells expressing the human CB1 receptor (agonism)
Assay type: biochemical
Design: expressed in transfected cells; membrane preparation
condition context: human CB1, CHO cell membranes, read-out: GTPγS EC50
Reported values of pEC50 for individual entries
# reply with the number alone; pEC50 is -log10 of concentration in mol/L

Reference set (5 entries):
- compound: "CC(C)(C)[C@H](NC(=O)c1nn(Cc2ccc(F)cc2)c2c(F)c(F)ccc12)C(=O)NCc1nnc(C(N)=O)o1"
  assayed target: "human CB1 receptor (Homo sapiens, UniProt P21554)"
  pEC50: 8.77
- compound: "CC(C)(C)C(NC(=O)c1nn(Cc2ccccc2)c2ccc(-c3ncco3)cc12)C(N)=O (centres unmarked)"
  assayed target: "human CB1 receptor (Homo sapiens, UniProt P21554)"
  pEC50: 6.57
- compound: "CC(C)(C)[C@H](NC(=O)c1nn(Cc2ccc(C#N)cc2F)c2ccccc12)C(=O)NCCNS(=O)(=O)c1ccc(C#N)cc1"
  assayed target: "human CB1 receptor (Homo sapiens, UniProt P21554)"
  pEC50: 7.09
- compound: "CC(C)(C)[C@H](NC(=O)c1nn(Cc2ccccc2)c2ccc(-c3cccnc3)cc12)C(N)=O"
  assayed target: "human CB1 receptor (Homo sapiens, UniProt P21554)"
  pEC50: 6.68
- compound: "Cn1nc(CNC(=O)[C@@H](NC(=O)c2nn(Cc3ccc(F)cc3)c3ccccc23)C(C)(C)C)cc1C1CCC1"
  assayed target: "human CB1 receptor (Homo sapiens, UniProt P21554)"
  pEC50: 7.33

**Query** # value lookup — system human CB1 receptor (Homo sapiens, UniProt P21554), readout pEC50, item CC(C)(C)[C@H](NC(=O)c1nn(Cc2ccc(C#N)cc2)c2c(F)cccc12)C(=O)N[C@@H](CO)c1ccccc1
**Result** 7.38

**Query** # value lookup — system human CB1 receptor (Homo sapiens, UniProt P21554), readout pEC50, item CC(C)(C)[C@H](NC(=O)c1nn(Cc2ccc(C#N)cc2)c2ccccc12)C(=O)NCCNS(=O)(=O)C1CC1
**Result** 7.78

**Query** # value lookup — system human CB1 receptor (Homo sapiens, UniProt P21554), readout pEC50, item CC(C)(C)[C@H](NC(=O)c1nn(Cc2ccccc2)c2ccccc12)C(=O)NCCNS(=O)(=O)c1ccc(C#N)cc1
**Result** 7.00

**Query** # value lookup — system human CB1 receptor (Homo sapiens, UniProt P21554), readout pEC50, item CC(C)(C)[C@H](NC(=O)c1nn(Cc2ccc(F)cc2)c2ccccc12)C(=O)NCc1n[nH]c(-c2ccccc2)n1
**Result** 7.41

**Query** # value lookup — system human CB1 receptor (Homo sapiens, UniProt P21554), readout pEC50, item CC(C)(C)[C@H](NC(=O)c1nn(Cc2ccc(C#N)cc2F)c2c(F)c(F)ccc12)C(=O)NCc1nnc(C(N)=O)o1
**Result** 7.46

**Query** # value lookup — system human CB1 receptor (Homo sapiens, UniProt P21554), readout pEC50, item CC(C)(C)C(NC(=O)c1nn(Cc2ccc(C#N)cc2F)c2ccccc12)c1nnc(N)o1 (centres unmarked)
**Result** 7.86

**Query** # value lookup — system human CB1 receptor (Homo sapiens, UniProt P21554), readout pEC50, item CC(C)(C)C(NC(=O)c1nn(Cc2ccc(F)cc2)c2c(F)cccc12)C(=O)NCc1nnc(C(N)=O)o1 (centres unmarked)
**Result** 8.42

**Query** # value lookup — system human CB1 receptor (Homo sapiens, UniProt P21554), readout pEC50, item CC(C)(C)[C@H](NC(=O)c1nn(Cc2ccc(F)cc2)c2ccccc12)C(=O)NCCS(=O)(=O)NCC1CC1
**Result** 7.55

**Query** # value lookup — system human CB1 receptor (Homo sapiens, UniProt P21554), readout pEC50, item CC(C)(C)[C@H](NC(=O)c1nn(Cc2ccc(C#N)cc2F)c2ccccc12)C(=O)NCCNS(=O)(=O)C1CC1
**Result** 8.06

###

assayed target: UniProtKB P21554
assay explanation: Human CB1 receptor binding, [3H] CP-55,940 displacement on HEK cell membranes
Design: expressed in transfected cells; host or cells: HEK cells, doxycycline-induced; membrane preparation
condition context: read-out: CB1 Ki
outcome measure: Ki (nM)
Express the result in nM but write the number alone.

Reference set (3 entries):
- compound structure: "CC(C)(C)[C@H](NC(=O)c1nn(Cc2ccc(C#N)cc2)c2c(F)cccc12)C(=O)N[C@@H](CO)c1ccccc1"
  assayed target: "UniProtKB P21554"
  experimental value: 7.69
- compound structure: "CC(C)(C)[C@H](NC(=O)c1nn(Cc2ccc(C#N)cc2)c2ccccc12)c1nnc(N)o1"
  assayed target: "UniProtKB P21554"
  experimental value: 8.85
- compound structure: "CC(C)(C)[C@H](NC(=O)c1nn(Cc2ccc(F)cc2)c2ccccc12)C(=O)N1CCC(F)(CO)CC1"
  assayed target: "UniProtKB P21554"
  experimental value: 3.48

**Query** Field request: Ki | item: CC(C)(C)[C@H](NC(=O)c1nn(Cc2ccc(C#N)cc2)c2c(F)cccc12)C(=O)NCc1nnc(C(=O)NCCO)o1
**Result** 58

###

assayed target: human CB1 receptor (Homo sapiens)
assay explanation: Human CB1 receptor binding, [3H] CP-55,940 displacement on HEK cell membranes
Design: expressed in transfected cells; host or cells: HEK cells, doxycycline-induced; membrane preparation
condition context: read-out: CB1 Ki
Reported values of Ki for individual entries

Reference set (6 entries):
- molecule: "CC(C)(C)C(NC(=O)c1nn(Cc2ccc(F)cc2)c2ccccc12)c1nnc(C(N)=O)o1 (stereo not shown) [Example 122]"
  assayed target: "human CB1 receptor (Homo sapiens)"
  Ki: "0.73 nM"
- molecule: "CC(C)(C)[C@H](NC(=O)c1nn(Cc2ccc(F)cc2)c2ccccc12)C(=O)NCCN1CCNC(=O)C1 [Example 467]"
  assayed target: "human CB1 receptor (Homo sapiens)"
  Ki: "53.8 nM"
- molecule: "CC(C)(C)[C@H](NC(=O)c1nn(Cc2ccc(F)cc2)c2ccccc12)C(=O)NCCn1ccccc1=O [Example 502]"
  assayed target: "human CB1 receptor (Homo sapiens)"
  Ki: "17.3 nM"
- molecule: "CC(C)(C)[C@H](NC(=O)c1nn(Cc2ccc(C#N)cc2)c2c(F)cccc12)C(=O)N[C@H]1CCc2ccccc21 [Example 287]"
  assayed target: "human CB1 receptor (Homo sapiens)"
  Ki: "> 400 nM"
- molecule: "CC(C)(C)C(NC(=O)c1nn(Cc2ccc(F)cc2)c2c(F)cccc12)C(=O)NCc1nnc(C(N)=O)o1 (stereo not shown) [Example 180]"
  assayed target: "human CB1 receptor (Homo sapiens)"
  Ki: "0.37 nM"
- molecule: "CC(C)(C)[C@H](NC(=O)c1nn(Cc2ccc(F)cc2)c2ccccc12)C(=O)NCc1nnc(C(N)=O)o1 [Example 11]"
  assayed target: "human CB1 receptor (Homo sapiens)"
  Ki: "0.29 nM"

Could you now look at the following molecule, please?
**Query** Field request: Ki | item: CC(C)(C)[C@H](NC(=O)c1nn(Cc2ccccc2)c2ccccc12)C(=O)NCCNS(=O)(=O)c1ccc(C#N)cc1 [Example 263]
**Result** 8.36 nM

###

assayed target: human CB1 receptor (Homo sapiens, UniProt P21554)
assay explanation: [35S] GTPγS binding on membranes of CHO cells expressing the human CB1 receptor (agonism)
Assay type: biochemical
Set-up: expressed in transfected cells; membrane preparation
condition context: GTPγS EC50, human CB1, CHO cell membranes
outcome measure: pEC50
# reply with the number alone; pEC50 is -log10 of concentration in mol/L

Reference set (3 entries):
- molecule: "CC(C)(C)[C@H](NC(=O)c1nn(Cc2ccc(F)c(F)c2)c2ccccc12)C(=O)NCCC(N)=O [Example 473]"
  outcome measure: "pEC50"
  experimental value: 7.38
- molecule: "CC(C)(C)[C@H](NC(=O)c1nn(Cc2ccc(F)cc2)c2ccccc12)C(=O)N[C@@H]1CNC(=O)C1 [Example 459]"
  outcome measure: "pEC50"
  experimental value: 7.75
- molecule: "CC(C)(C)C(NC(=O)c1nn(Cc2ccccc2)c2cc(Br)ccc12)C(N)=O (stereo not shown) [Example 33]"
  outcome measure: "pEC50"
  experimental value: 9.04

Could you now look at the following molecule, please?
**Query** # value lookup — system human CB1 receptor (Homo sapiens, UniProt P21554), readout pEC50, item CC(C)(C)C(NC(=O)c1nn(Cc2ccc(F)cc2)c2c(F)cccc12)C(=O)NCC(N)=O (stereo not shown) [Example 179]
**Result** 8.27
